Reference source: patent US20030180744

ASSAYED SYSTEM: TGFβ1 (Homo sapiens, UniProt P01137 P01137:279-390)
Sequence (P01137 279-390, one chain of several): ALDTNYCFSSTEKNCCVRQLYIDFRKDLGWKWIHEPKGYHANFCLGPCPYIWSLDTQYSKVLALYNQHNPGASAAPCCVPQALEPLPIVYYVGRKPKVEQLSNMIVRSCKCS
ASSAY DETAILS: filter; not inhibitory in cell assay
CONDITIONS: tags: Genentech; biotinylated version used in bead assay; chain copies: 2
READOUT: Kd (nM)
# value in nM; strip the unit string

Look at this binder and give its reported Kd. lib7-43 (ssRNA, 2'-F U, 2'-NH2 C) RNA: GGGGGAGAACGCGGAUCCGAGCAAUCCCAGGCGCAUAGCUUCCGAGUAGACAGGCGGGAGGGGUGGAUGUGGCGUCUCGAGAAGCUUCGCUCUAGAUCUCCCUUUAGUGAGGGUUA 3.3

Look at this binder and give its reported Kd. lib6-23 (ssRNA, 2'-NH2 pyrimidines) RNA: GGGGGAGAACGCGGAUCCAAGCUUCGAGUAGACAGGAGGGAGGGGUGGAUGUGGAGUCUCGAGAAGCUUCGCUCUAGAUCUCCCUUUAGUGAGGGUUA 3.4

Look at this binder and give its reported Kd. lib2-6-4 (ssRNA, 2'-NH2 pyrimidines) RNA: GGGGGAGAACGCGGAUCCGAGCAAUCCCAGGCGCAUAGCUUCCGAGUAGACAGGAGGGAGGGGUGGAUGUGGUGUCUCGAGAAGCUUCGCUCUAGAUCUCCCUUUAGUGAGGGUUA 3.1

Look at this binder and give its reported Kd. lib5-48 (ssRNA, 2'-NH2 pyrimidines) RNA: GGGGGAGAACGCGGAUCCGGCAAUCCCAGGCGCAUAGCUUCCGAGUAGACAGGAGGGAGGGGUGGAUGUGGUGUACGAGGAAGCUUCGCUCUAGAUCUCCCUUUAGUGAGGGUUA 3.8

Look at this binder and give its reported Kd. lib7-21 (ssRNA, 2'-F U, 2'-NH2 C) RNA: GGGGGAGAACGCGGAUCCGAGCAAUCCCGGGCGCAUAGCUUCCGAGGAGACAGGCGGGAGGGGUGGAUGUGGCGUCUCGAGAAGCUUCGCUCUAGAUCUCCCUUUAGUGAGGGUUA 2.4
